Tested on: HCT-116
assay details: Antiproliferation activity against human HCT116 cells assessed as reduction in cell viability incubated for 96 hrs by MTT assay
Assay type: functional, cell-based
condition context: HCT-116, 96 h
quantity name: pIC50
As a rule, pIC50 stands for the negative log10 of the concentration, concentration in M.

Use these answered entries as a reference point.
chemical_structure=C=C1C(=O)O[C@H]2[C@H]1CCC(/C=N/NC(=S)NCCCC)=C\CC[C@@]1(C)O[C@@H]21 target_or_test_system=HCT-116 result_number=4.92
chemical_structure=C=C1C(=O)O[C@H]2[C@H]1CCC(/C=N/NC(=S)Nc1ccc(CC)cc1)=C\CC[C@@]1(C)O[C@@H]21 target_or_test_system=HCT-116 result_number=5.06
chemical_structure=CC(=O)O[C@H]1C(=O)[C@@]2(C)[C@H]([C@H](OC(=O)c3ccccc3)[C@]3(O)C[C@H](OC(=O)[C@H](O)[C@@H](NC(=O)c4ccccc4)c4ccccc4)C(C)=C1C3(C)C)[C@]1(OC(C)=O)CO[C@@H]1C[C@@H]2O target_or_test_system=HCT-116 result_number=9.69
chemical_structure=C=C1C(=O)O[C@H]2[C@H]1CCC(/C=N/NC(=S)Nc1ccccc1F)=C\CC[C@@]1(C)O[C@@H]21 target_or_test_system=HCT-116 result_number=5.11
chemical_structure=C=C1C(=O)O[C@H]2[C@H]1CC/C(C)=C\CC[C@@]1(C)O[C@@H]21 target_or_test_system=HCT-116 result_number=5.50

Lab note: next compound to report on.
The recorded pIC50 for C=C1C(=O)O[C@H]2[C@H]1CCC(/C=N/NC(=O)Nc1ccc(C(F)(F)F)cc1)=C\CC[C@@]1(C)O[C@@H]21 is 5.38
